The values you see were collected from paper PMC4774911.

Target: CHEK1 (Homo sapiens, UniProt O14757)
Sequence (O14757 1-476): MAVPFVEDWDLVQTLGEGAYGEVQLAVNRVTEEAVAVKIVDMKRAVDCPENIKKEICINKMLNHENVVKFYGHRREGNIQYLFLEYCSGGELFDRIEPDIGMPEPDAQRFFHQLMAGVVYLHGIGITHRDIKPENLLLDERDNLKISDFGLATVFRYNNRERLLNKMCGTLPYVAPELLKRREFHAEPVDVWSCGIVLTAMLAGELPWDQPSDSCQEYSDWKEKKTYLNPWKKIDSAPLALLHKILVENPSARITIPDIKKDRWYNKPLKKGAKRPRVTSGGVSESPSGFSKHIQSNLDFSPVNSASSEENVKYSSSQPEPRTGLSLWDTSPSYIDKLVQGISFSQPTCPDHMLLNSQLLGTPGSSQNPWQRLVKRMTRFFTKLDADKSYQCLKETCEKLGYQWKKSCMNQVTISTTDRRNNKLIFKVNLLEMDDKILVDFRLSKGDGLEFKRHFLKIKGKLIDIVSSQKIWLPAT
Assay: biochemical
Parameters: endogenous in cells; host or cells: K562 cell extract; species or system K562 (extract); replicate k of n = 2 (each experiment ID is one independent experiment; two experiment IDs per compound)
Settings: read-out: KDapp
pKd: −log10 of the molar value.

STRUCTURE SMILES STRING	TARGET OR SYSTEM	pKd
CN1CCN(c2ccc(Nc3ncc(C#N)c(Nc4ccccc4C(N)=O)n3)cc2)CC1.Cl	CHEK1 (Homo sapiens, UniProt O14757)	7.04
